# Experiment summary: Diameter of micelles by dynamic light scattering (DLS)
# Type: physicochemical
# Test context: estimated micelle diameter by DLS; 30 mM tris-HCl, pH 8.0
Please note: met applies when Ø, nm is 4 nm or greater, and not met applies otherwise.

Evaluate CCCCCCCCCCCCCC(=O)N[C@@H](COCc1cn(CCO[C@@H]2OC(CO)[C@@H](O[C@H]3OC(CO)[C@@H](O)C(O)C3O)C(O)C2O)nn1)C(=O)N[C@H](CCC(=O)O)C(=O)O (stereo partly drawn) : Ø, nm at minimum 4 nm?
not met

Evaluate CCCCCCCCCCCCCCCCCCC(=O)N[C@@H](COCc1cn(CCO[C@@H]2OC(CO)[C@@H](O)C(O)C2O)nn1)C(=O)N[C@H](CCC(=O)O)C(=O)O (stereo partly drawn) : Ø, nm at minimum 4 nm?
met

Evaluate CCCCCCCCCCCCC(CCCCCCCCCCCC)C(=O)N[C@@H](COCc1cn(CCO[C@@H]2OC(CO)[C@@H](O)C(O)C2O)nn1)C(=O)N[C@H](CCC(=O)O)C(=O)O (stereo partly drawn) : Ø, nm at minimum 4 nm?
met

Evaluate CCCCCCCCCCCCCC(=O)N[C@@H](COCc1cn(CCO[C@@H]2OC(CO)[C@@H](O)C(O)C2O)nn1)C(=O)N[C@H](CCC(=O)O)C(=O)O (stereo partly drawn) : Ø, nm at minimum 4 nm?
not met
